- target-desc: mouse Tas2r144 (Mus musculus)
- Construct: expressed in transfected cells; host or cells: HEK293T-Gα16gust44
- Sequence (Q7TQB8 whole entry): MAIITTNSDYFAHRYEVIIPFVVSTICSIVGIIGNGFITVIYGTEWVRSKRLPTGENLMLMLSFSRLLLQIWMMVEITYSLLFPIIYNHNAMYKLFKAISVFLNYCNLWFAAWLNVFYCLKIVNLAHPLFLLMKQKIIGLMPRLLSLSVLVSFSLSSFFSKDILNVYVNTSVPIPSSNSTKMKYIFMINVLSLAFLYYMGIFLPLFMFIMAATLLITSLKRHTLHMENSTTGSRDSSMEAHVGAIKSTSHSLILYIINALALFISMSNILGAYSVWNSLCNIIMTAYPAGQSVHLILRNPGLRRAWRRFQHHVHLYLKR
- protocol: Calcium imaging assay (FLIPR), HEK293T-Gα16gust44 cells transfected with mouse Tas2r144
- Type: cell-based
- experimental-setup: Time 54.781 s
Each item that follows carries a reported RLU.

Example cases with answers are listed next.
[
  {
    "structure-string": "C[C@H](CCC(=O)NCCS(=O)(=O)O)[C@H]1CC[C@H]2[C@@H]3CC[C@@H]4C[C@H](O)CC[C@]4(C)[C@H]3CC[C@]12C",
    "target-desc": "mouse Tas2r144 (Mus musculus)",
    "RLU": "375.128 RLU"
  },
  {
    "structure-string": "C[C@H](CCC(=O)NCC(=O)O)[C@H]1CC[C@H]2[C@@H]3[C@H](O)C[C@@H]4C[C@H](O)CC[C@]4(C)[C@H]3C[C@H](O)[C@]12C",
    "target-desc": "mouse Tas2r144 (Mus musculus)",
    "RLU": "444.104 RLU"
  },
  {
    "structure-string": "C[C@H](CCC(=O)O)[C@H]1CC[C@H]2[C@@H]3[C@H](O)C[C@@H]4C[C@H](O)CC[C@]4(C)[C@H]3C[C@H](O)[C@]12C",
    "target-desc": "mouse Tas2r144 (Mus musculus)",
    "RLU": "644.317 RLU"
  }
]

RLU reported for this compound C[C@H](CCC(=O)NCCS(=O)(=O)O)[C@H]1CC[C@H]2[C@@H]3[C@H](O)C[C@@H]4C[C@H](O)CC[C@]4(C)[C@H]3C[C@H](O)[C@]12C : 537.48 RLU

---

# reported RLU; entries follow
- target-desc: mouse Tas2r108 (Mus musculus, UniProt Q9JKT3)
- Construct: expressed in transfected cells; host or cells: HEK293T-Gα16gust44
- Sequence (Q9JKT3 whole entry): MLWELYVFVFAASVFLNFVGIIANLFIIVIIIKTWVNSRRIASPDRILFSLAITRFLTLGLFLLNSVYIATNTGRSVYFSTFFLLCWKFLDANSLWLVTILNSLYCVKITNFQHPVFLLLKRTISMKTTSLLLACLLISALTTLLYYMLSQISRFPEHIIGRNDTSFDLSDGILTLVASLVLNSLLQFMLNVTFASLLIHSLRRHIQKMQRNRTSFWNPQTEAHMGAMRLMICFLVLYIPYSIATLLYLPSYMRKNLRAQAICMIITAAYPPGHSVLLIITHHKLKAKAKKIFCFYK
- protocol: Calcium imaging assay (FLIPR), HEK293T-Gα16gust44 cells transfected with mouse Tas2r108
- Format: cell-based
- experimental-setup: Time 233.562 s
Give the number; RLU is assumed, so skip it.

[
  {
    "structure-string": "C[C@H](CCC(=O)NCC(=O)O)[C@H]1CC[C@H]2[C@@H]3[C@H](O)C[C@@H]4C[C@H](O)CC[C@]4(C)[C@H]3C[C@H](O)[C@]12C",
    "target-desc": "mouse Tas2r108 (Mus musculus, UniProt Q9JKT3)",
    "scale-unit": "RLU",
    "RLU": 163.97
  },
  {
    "structure-string": "C[C@H](CCC(=O)O)[C@H]1CC[C@H]2[C@@H]3CC[C@@H]4C[C@H](O)CC[C@]4(C)[C@H]3C[C@H](O)[C@]12C",
    "target-desc": "mouse Tas2r108 (Mus musculus, UniProt Q9JKT3)",
    "scale-unit": "RLU",
    "RLU": 488.911
  },
  {
    "structure-string": "C[C@H](CCC(=O)NCCS(=O)(=O)O)[C@H]1CC[C@H]2[C@@H]3[C@H](O)C[C@@H]4C[C@H](O)CC[C@]4(C)[C@H]3C[C@H](O)[C@]12C",
    "target-desc": "mouse Tas2r108 (Mus musculus, UniProt Q9JKT3)",
    "scale-unit": "RLU",
    "RLU": 219.243
  }
]

Now for another entry.
Form: compound = C[C@H](CCC(=O)O)[C@H]1CC[C@H]2[C@@H]3[C@H](O)C[C@@H]4C[C@H](O)CC[C@]4(C)[C@H]3C[C@H](O)[C@]12C ; RLU = 152.204

---

- System: HEK293T-Gα16gust44 cells transfected with empty vector (mock)
- protocol: Calcium imaging assay (FLIPR), empty vector control (mock)
- Assay type: cell-based
- experimental-setup: conc. 0,0003 mM; Mock (sheet TAS2R1)
value-type: Δ F/F
The answer should be a number; do not append a unit.

For orientation, consider the following solved cases.
[
  {
    "structure-string": "C[C@H](CCC(=O)NCCS(=O)(=O)O)[C@H]1CC[C@H]2[C@@H]3CC[C@@H]4C[C@H](O)CC[C@]4(C)[C@H]3CC[C@]12C",
    "Δ F/F": 0.00111
  },
  {
    "structure-string": "C[C@H](CCC(=O)O)[C@H]1CC[C@H]2[C@@H]3CC[C@@H]4C[C@H](O)CC[C@]4(C)[C@H]3C[C@H](O)[C@]12C",
    "Δ F/F": -0.002238
  },
  {
    "structure-string": "C[C@H](CCC(=O)O)[C@H]1CC[C@H]2[C@@H]3[C@@H](O)C[C@@H]4C[C@H](O)CC[C@]4(C)[C@H]3CC[C@]12C",
    "Δ F/F": -0.0004379
  },
  {
    "structure-string": "C[C@H](CCC(=O)O)[C@H]1CC[C@H]2[C@@H]3CC[C@@H]4C[C@H](O)CC[C@]4(C)[C@H]3CC[C@]12C",
    "Δ F/F": -0.002463
  }
]

Here is another molecule to look at.
Fill in: HEK293T-Gα16gust44 cells transfected with empty vector (mock) Δ F/F for C[C@H](CCC(=O)O)[C@H]1CC[C@H]2[C@@H]3[C@H](O)C[C@@H]4C[C@H](O)CC[C@]4(C)[C@H]3CC[C@]12C = -0.001427

---

- target-desc: human TAS2R4 (Homo sapiens, UniProt Q9NYW5)
- Construct: expressed in transfected cells; host or cells: HEK293T-Gα16gust44
- Sequence (Q9NYW5 whole entry): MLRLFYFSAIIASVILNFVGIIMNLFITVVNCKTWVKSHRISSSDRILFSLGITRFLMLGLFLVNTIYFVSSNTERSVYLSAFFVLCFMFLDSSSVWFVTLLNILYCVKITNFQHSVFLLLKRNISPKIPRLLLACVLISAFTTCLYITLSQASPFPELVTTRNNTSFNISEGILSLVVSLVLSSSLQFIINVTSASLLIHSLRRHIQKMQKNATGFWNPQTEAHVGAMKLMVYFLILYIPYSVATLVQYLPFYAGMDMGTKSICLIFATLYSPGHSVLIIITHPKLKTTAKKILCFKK
- protocol: Calcium imaging assay (FLIPR), HEK293T-Gα16gust44 cells transfected with human TAS2R4
- Type: cell-based
- experimental-setup: Time (s) 359.547
value-type: RLU, fluorescence trace (RLU)
Just the number in RLU, nothing appended.

Illustrative cases are given below, each with its answer.
[
  {
    "structure-string": "C[C@H](CCC(=O)NCCS(=O)(=O)O)[C@H]1CC[C@H]2[C@@H]3[C@H](O)C[C@@H]4C[C@H](O)CC[C@]4(C)[C@H]3C[C@H](O)[C@]12C",
    "RLU, fluorescence trace / RLU": 151.684
  },
  {
    "structure-string": "C[C@H](CCC(=O)O)[C@H]1CC[C@H]2[C@@H]3[C@@H](O)C[C@@H]4C[C@H](O)CC[C@]4(C)[C@H]3CC[C@]12C",
    "RLU, fluorescence trace / RLU": 144.823
  },
  {
    "structure-string": "C[C@H](CCC(=O)NCCS(=O)(=O)O)[C@H]1CC[C@H]2[C@@H]3CC[C@@H]4C[C@H](O)CC[C@]4(C)[C@H]3CC[C@]12C",
    "RLU, fluorescence trace / RLU": 119.545
  },
  {
    "structure-string": "C[C@H](CCC(=O)O)[C@H]1CC[C@H]2[C@@H]3CC[C@@H]4C[C@H](O)CC[C@]4(C)[C@H]3C[C@H](O)[C@]12C",
    "RLU, fluorescence trace / RLU": 343.746
  },
  {
    "structure-string": "C[C@H](CCC(=O)NCC(=O)O)[C@H]1CC[C@H]2[C@@H]3[C@H](O)C[C@@H]4C[C@H](O)CC[C@]4(C)[C@H]3C[C@H](O)[C@]12C",
    "RLU, fluorescence trace / RLU": 102.962
  }
]

Shift focus to the following entry.
Let me check: C[C@H](CCC(=O)O)[C@H]1CC[C@H]2[C@@H]3[C@H](O)C[C@@H]4C[C@H](O)CC[C@]4(C)[C@H]3C[C@H](O)[C@]12C , system human TAS2R4 (Homo sapiens, UniProt Q9NYW5), measured RLU, fluorescence trace is 277.364

---

- target-desc: human TAS2R4 (Homo sapiens, UniProt Q9NYW5)
- Construct: expressed in transfected cells; host or cells: HEK293T-Gα16gust44
- protocol: Calcium imaging assay (FLIPR), HEK293T-Gα16gust44 cells transfected with human TAS2R4
- Type: cell-based
- experimental-setup: Time (s) 56.781 (TCA, TLCA: 56.782)
- Description: This set of bile acids was chosen because of their commercial availability in high purities, their diversity within the class of bile acids and their previous detection and quantitation in human blood. Stock solutions were prepared in DMSO. […] Measured data were negative control corrected by subtracting the signal of the mock-transfected cells and exported to Microsoft Excel using the FLIPR software ScreenWorks 4.2. […]
Give rule met when the value for RLU, fluorescence trace is at least 400 RLU. Give rule not met when it is less.

Some solved entries appear below for comparison.
[
  {
    "structure-string": "C[C@H](CCC(=O)NCC(=O)O)[C@H]1CC[C@H]2[C@@H]3[C@H](O)C[C@@H]4C[C@H](O)CC[C@]4(C)[C@H]3C[C@H](O)[C@]12C",
    "classification": "rule met"
  },
  {
    "structure-string": "C[C@H](CCC(=O)NCCS(=O)(=O)O)[C@H]1CC[C@H]2[C@@H]3[C@H](O)C[C@@H]4C[C@H](O)CC[C@]4(C)[C@H]3C[C@H](O)[C@]12C",
    "classification": "rule met"
  },
  {
    "structure-string": "C[C@H](CCC(=O)O)[C@H]1CC[C@H]2[C@@H]3CC[C@@H]4C[C@H](O)CC[C@]4(C)[C@H]3C[C@H](O)[C@]12C",
    "classification": "rule not met"
  }
]

Exam item: Does C[C@H](CCC(=O)NCCS(=O)(=O)O)[C@H]1CC[C@H]2[C@@H]3CC[C@@H]4C[C@H](O)CC[C@]4(C)[C@H]3CC[C@]12C have a reported RLU, fluorescence trace of at least 400 RLU?
Marked response: rule not met

Exam item: # check: RLU, fluorescence trace of C[C@H](CCC(=O)O)[C@H]1CC[C@H]2[C@@H]3[C@H](O)C[C@@H]4C[C@H](O)CC[C@]4(C)[C@H]3C[C@H](O)[C@]12C is greater than or equal to 400 RLU
Marked response: rule met

Exam item: Hi, just wondering whether C[C@H](CCC(=O)O)[C@H]1CC[C@H]2[C@@H]3[C@@H](O)C[C@@H]4C[C@H](O)CC[C@]4(C)[C@H]3CC[C@]12C shows RLU, fluorescence trace of 400 RLU or higher.
Marked response: rule met

Source listed as paper PMC10247784.
